# studyTarget: T1, nSR100 (Mus musculus, UniProt Q8BKA3)
# T1 construct: host or cells: mouse N2A cells
# T1 sequence (Q8BKA3 1-608): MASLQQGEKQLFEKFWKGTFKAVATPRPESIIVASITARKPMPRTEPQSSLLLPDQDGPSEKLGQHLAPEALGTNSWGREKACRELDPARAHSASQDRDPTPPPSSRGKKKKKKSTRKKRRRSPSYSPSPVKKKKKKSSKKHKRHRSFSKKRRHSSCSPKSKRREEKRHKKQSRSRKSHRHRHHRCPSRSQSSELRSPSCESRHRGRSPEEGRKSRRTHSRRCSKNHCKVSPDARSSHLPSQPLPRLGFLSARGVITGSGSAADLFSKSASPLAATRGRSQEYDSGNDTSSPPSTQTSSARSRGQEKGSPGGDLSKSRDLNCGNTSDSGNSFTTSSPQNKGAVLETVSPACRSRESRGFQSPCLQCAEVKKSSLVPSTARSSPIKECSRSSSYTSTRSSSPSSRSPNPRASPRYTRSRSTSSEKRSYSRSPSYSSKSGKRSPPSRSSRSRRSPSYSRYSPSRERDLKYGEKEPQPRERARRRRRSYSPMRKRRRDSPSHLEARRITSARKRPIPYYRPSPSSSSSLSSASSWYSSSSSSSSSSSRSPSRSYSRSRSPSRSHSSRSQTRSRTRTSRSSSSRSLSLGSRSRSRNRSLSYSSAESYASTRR
# protocolNotes: AP-MS nSR100 interaction partners from mouse N2A cells (Table 5)
# Assay type: binding
# testContext: bait Srrm4, biological replicate 1 (first number of the cell), AP-MS
Tick t if Spectra (number of spectra for the prey in the purification of the bait) is 20 or greater. Tick f if Spectra (number of spectra for the prey in the purification of the bait) is less than 20.

>  <molecule>
Necap1 (protein, UniProt Q9CR95 1-275, looked up) Adaptin ear-binding …: MAAELEYESVLCVKPDVSVYRIPPRASNRGYRASDWKLDQPDWTGRLRITSKGKIAYIKLEDKVSGELFAQAPVEQYPGIAVETVTDSSRYFVIRIQDGTGRSAFIGIGFTDRGDAFDFNVSLQDHFKWVKQETEISKESQEMDNRPKLDLGFKEGQTIKLSIGNITAKKGGASKPRASGTGGLSLLPPPPGGKVTIPPPSSSVAISNHVTPPPIPKSNHGGNDSDILLDLDSPAPVSTSAPAPVSTSNDLWGDFSTASSSVPNQAPQPSNWVQF

>  <labelClass>
f

$$$$
>  <molecule>
Cdc37 (protein, UniProt Q61081 1-379, looked up) Hsp90 co-chaperone Cdc37: MVDYSVWDHIEVSDDEDETHPNIDTASLFRWRHQARVERMEQFQKEKEELDRGCRECKRKVAECQRKLKELEVAESDGQVELERLRAEAQQLRKEERSWEQKLEDMRKKEKNMPWNVDTLSKDGFSKSMVNTKPEKAEEDSEEAREQKHKTFVEKYEKQIKHFGMLHRWDDSQKYLSDNVHLVCEETANYLVIWCIDLEVEEKCALMEQVAHQTMVMQFILELAKSLKVDPRACFRQFFTKIKTADHQYMEGFKYELEAFKERVRGRAKLRIEKAMKEYEEEERKKRLGPGGLDPVEVYESLPEELQKCFDVKDVQMLQDAISKMDPTDAKYHMQRCIDSGLWVPNSKSGEAKEGEEAGPGDPLLEAVPKAGNEKDVSA

>  <labelClass>
t

$$$$
>  <molecule>
Snip1 (protein, UniProt Q8BIZ6 1-383, looked up) Smad nuclear-interacting …: MKAGKSERERSGRRRHRSGDALTTVVVKQERLSPEPVAHRRPDAPAASLSPPAAEPGHSGHRGSRARSPAKKKSKSSGRRSKSPRTKRSQSPHYPMVKVKQEREDHPRRGREDRQHREPSEQEHRRARNSERDRHRGHSRQGRSSDERPVSGQDRDRDSQNLQAQEEERDFHNARRREHRQQNESAGSEAQEVIPRPAGNRSKEVPVKEKPSFELSGALLEDTNTFRGVVIKYSEPPEARIPKKRWRLYPFKNDEVLPVMYIHRQSAYLLGRHRRIADIPIDHPSCSKQHAVFQYRLVEYTRADGTVGRRVKPYIIDLGSGNGTFLNNKRIEPQRYYELKEKDVLKFGFSSREYVLLHESSDTSELDRKEDEDDEEEEMVSDS

>  <labelClass>
f

$$$$

Ask: I'd appreciate it if you could say whether Rbmx2 (protein, UniProt Q8R0F5 1-326, looked up) RNA-binding motif protein, …: MNPLTKVKLINELNEREVQLGVAEKVSWHSEYKHSAWIFVGGLPYELTEGDIICVFSQYGEIVNINLVRDKKTGKSKGFCFLCYEDQRSTVLAVDNFNGIKIKGRTIRVDHVSNYRAPQESEDVDDVTRELQEKGCGVKTPPSSPPEVSEDEDAKLTKKHKKDKKEKKKRKKEKTEGQAQAEQPSCSRSATVKEKKDERASRKHSSKTSERAQKSEHRESKKSHSGSPDGRSSYHARAEDPECKARKEKPKHEHKSASRREAEEKSRERERGRSSGTHSGRHRGHSDGRSHRSRSRSRSPDKSHRHKKYRHSRERDSYHGSDRRHH has Spectra (number of spectra for the prey in the purification of the bait) at least equal to 20.
Reply: f

Ask: I'd appreciate it if you could say whether Bcas2 (protein, UniProt Q9D287 2-225, looked up) Pre-mRNA-splicing factor SPF27: AGTGLVAGEVVVDALPYFDQGYEAPGVREAAAALVEEETRRYRPTKNYLSYLTAPDYSAFETDIMRNEFERLAARQPIELLSMKRYELPAPSSGQKNDITAWQECVNNSMAQLEHQAVRIENLELMSQHGCNAWKVYNENLVHMIEHAQKELQKLRKHIQDLNWQRKNMQLTAGSKLREMESNWVSLVSKNYEIERTIVQLENEIYQIKQQHGEANKENIRQDF has Spectra (number of spectra for the prey in the purification of the bait) at least equal to 20.
Reply: f
